Measured bioavailability accompanies every entry in the list below.
test: IV and PO single dose pharmacokinetic studies in SD rats; format: in vivo; details: male, Sprague-Dawley, rat, plasma, IV infusion 1 mg/kg vs oral gavage 2 mg/kg, read-out: Rat % F

- Molecule: "COC[C@H]1C[C@@H](c2ncc(-c3ccc4c(c3)COc3cc5c(ccc6nc([C@@H]7C[C@H](C)CN7C(=O)[C@@H](NC(=O)OC)C(C)C)[nH]c65)cc3-4)[nH]2)N(C(=O)[C@H](NC(=O)OC)c2ccccc2)C1 [Example NM]"
  bioavailability / %: 6.93
- Molecule: "COC[C@H]1C[C@@H](c2nc3ccc4cc5c(cc4c3[nH]2)OCc2cc(-c3cnc([C@@H]4CC[C@H](C)N4C(=O)[C@@H](NC(=O)OC)C(C)C)[nH]3)ccc2-5)N(C(=O)[C@@H](NC(=O)OC)C(C)C)C1 [Example MP]"
  bioavailability / %: 24.2
- Molecule: "CCC(C)[C@H](NC(=O)OC)C(=O)N1C[C@@H](C)CC1c1ncc(-c2ccc3c(c2)COc2cc4c(ccc5nc([C@@H]6CC(COC)CN6C(=O)[C@H](NC(=O)OC)c6ccccc6)[nH]c54)cc2-3)[nH]1 (stereo in doubt) [Example QB]"
  bioavailability / %: 9.56
- Molecule: "COC[C@H]1C[C@@H](c2nc3ccc4cc5c(cc4c3[nH]2)OCc2cc(-c3cnc([C@@H]4C[C@H](C)CN4C(=O)[C@@H](NC(=O)OC)C(C)C)[nH]3)ccc2-5)N(C(=O)[C@@H](NC(=O)OC)C(C)C)C1 [Example MO]"
  bioavailability / %: 7.46
- Molecule: "COC[C@H]1C[C@@H](c2nc3c([nH]2)-c2cc4c(cc2CC3)-c2ccc(-c3cnc([C@@H]5CC[C@H](C)N5C(=O)[C@@H](NC(=O)OC)C(C)C)[nH]3)cc2CO4)N(C(=O)[C@H](NC(=O)OC)c2ccccc2)C1 [Example OP]"
  bioavailability / %: 15.1
- Molecule: "COC(=O)N[C@H](C(=O)N1[C@@H](C)CC[C@H]1c1ncc(-c2ccc3c(c2)COc2cc4c(ccc5nc([C@@H]6C[C@H](C)CN6C(=O)[C@H](NC(=O)OC)c6ccccc6)[nH]c54)cc2-3)[nH]1)C(C)C [Compound 617]"
  bioavailability / %: 14.4
- Molecule: "COC[C@H]1C[C@@H](c2ncc(-c3ccc4c(c3)COc3cc5c(ccc6nc([C@@H]7CC[C@H](C)N7C(=O)[C@@H](NC(=O)OC)C(C)C)[nH]c65)cc3-4)[nH]2)N(C(=O)[C@H](NC(=O)OC)c2ccccc2)C1 [Example PY]"
  bioavailability / %: 27.7
- Molecule: "COC[C@H]1C[C@@H](c2nc3ccc4cc5c(cc4c3[nH]2)OCc2cc(-c3cnc([C@@H]4C[C@H](C)CN4C(=O)[C@H](NC(=O)OC)c4ccccc4)[nH]3)ccc2-5)N(C(=O)[C@@H](NC(=O)OC)C(C)C)C1 [Example PF]"
  bioavailability / %: 4.3
- Molecule: "COC[C@H]1C[C@@H](c2nc3ccc4cc5c(cc4c3[nH]2)OCc2cc(-c3cnc([C@@H]4C[C@H](C)CN4C(=O)[C@@H](NC(=O)OC)C(C)C)[nH]3)ccc2-5)N(C(=O)[C@H](NC(=O)OC)c2ccccc2)C1 [Example MN]"
  bioavailability / %: 1.5
- Molecule: "COC[C@H]1C[C@@H](c2ncc(-c3ccc4c(c3)COc3cc5c(ccc6nc([C@@H]7CC[C@H](C)N7C(=O)[C@@H](NC(=O)OC)C(C)C)[nH]c65)cc3-4)[nH]2)N(C(=O)[C@@H](NC(=O)OC)[C@H](C)OC)C1 [Example QA]"
  bioavailability / %: 7.46
- Molecule: "COC(=O)N[C@H](C(=O)N1[C@@H](C)CC[C@H]1c1ncc(-c2ccc3c(c2)COc2cc4c(ccc5nc([C@@H]6CC[C@H](C)N6C(=O)[C@@H](NC(=O)OC)[C@@H](C)OC)[nH]c54)cc2-3)[nH]1)[C@@H](C)OC [Example NI]"
  bioavailability / %: 24.1
- Molecule: "CC[C@H](C)[C@H](NC(=O)OC)C(=O)N1[C@@H](C)CC[C@H]1c1ncc(-c2ccc3c(c2)COc2cc4c(ccc5nc([C@@H]6C[C@H](COC)CN6C(=O)[C@H](NC(=O)OC)c6ccccc6)[nH]c54)cc2-3)[nH]1 [Example OW]"
  bioavailability / %: 13.3
- Molecule: "COC[C@H]1C[C@@H](c2nc3ccc4cc5c(cc4c3[nH]2)OCc2cc(-c3cnc([C@@H]4CC[C@H](C)N4C(=O)[C@@H](NC(=O)OC)C(C)C)[nH]3)ccc2-5)N(C(=O)[C@@H](NC(=O)OC)[C@@H](C)OC)C1 [Example OM]"
  bioavailability / %: 12.2
- Molecule: "COC[C@H]1C[C@@H](c2nc3ccc4cc5c(cc4c3[nH]2)OCc2cc(-c3cnc([C@@H]4CC[C@H](C)N4C(=O)[C@@H](NC(=O)OC)C(C)C)[nH]3)ccc2-5)N(C(=O)[C@H](NC(=O)OC)c2ccccc2)C1 [Example NP]"
  bioavailability / %: 26.1
- Molecule: "COC[C@H]1C[C@@H](c2ncc(-c3ccc4c(c3)COc3cc5c(ccc6nc([C@@H]7CC[C@H](C)N7C(=O)[C@@H](NC(=O)OC)[C@@H](C)OC)[nH]c65)cc3-4)[nH]2)N(C(=O)[C@@H](NC(=O)OC)C(C)C)C1 [Example PI]"
  bioavailability / %: 8.7
- Molecule: "COC[C@H]1C[C@@H](c2ncc(-c3ccc4c(c3)COc3cc5c(cc3-4)CCc3nc([C@@H]4CC[C@H](C)N4C(=O)[C@@H](NC(=O)OC)C(C)C)[nH]c3-5)[nH]2)N(C(=O)[C@H](NC(=O)OC)c2ccccc2)C1 [Example OH]"
  bioavailability / %: 22.7

* * *

System: NS5A chimeric genotype 2a JFH-1 replicon with genotype 2b MD2b-1 strain NS5A gene (M31 present)
Assay: microbe, parasite or virus in culture
Type: cell-based, HCV
Details: Hepatitis C virus, read-out: 2b (s) (nM)
Method: Evaluation of Cell-Based Anti-HCV Activity: Antiviral potency (EC50) was determined using a Renilla luciferase (RLuc)-based HCV replicon reporter assay. […] 72 hours later, cells were lysed and Renilla luciferase activity quantified as recommended by the manufacturer (Promega-Madison, Wis.). […]
Measured EC50 accompanies every entry in the list below.

- Compound: "COC[C@H]1C[C@@H](c2nc3ccc4cc5c(cc4c3[nH]2)OCc2cc(-c3cnc([C@@H]4CCCN4C(=O)[C@@H](NC(=O)OC)C(C)C)[nH]3)ccc2-5)N(C(=O)[C@H](N)c2ccccc2)C1 [Example OO]"
  Value Units: "nM"
  EC50: 0.076
- Compound: "CC[C@H](C)[C@H](NC(=O)OC)C(=O)N1C[C@@H](COC)C[C@H]1c1ncc(-c2ccc3c(c2)COc2cc4c(ccc5nc([C@@H]6C[C@H](COC)CN6C(=O)[C@@H](NC(=O)OC)[C@@H](C)CC)[nH]c54)cc2-3)[nH]1 [Example OJ]"
  Value Units: "nM"
  EC50: 0.813

* * *

tested on: NS5A chimeric genotype 2a JFH-1 replicon with genotype 2b MD2b-1 strain NS5A gene (M31 present); assay: microbe, parasite or virus in culture; type: cell-based, HCV; conditions: Hepatitis C virus, read-out: 2b (s) (nM)

- Compound: "COC(=O)N[C@H](C(=O)N1CCC[C@H]1c1ncc(-c2ccc3c(c2)COc2cc4c(ccc5nc([C@@H]6C[C@H](C)CN6C(=O)[C@@H](NC(=O)OC)C(C)C)[nH]c54)cc2-3)[nH]1)C(C)C"
  EC50: "0.404 nM"
- Compound: "COC(=O)N[C@H](C(=O)N1C[C@@H](C)C[C@H]1c1ncc(-c2ccc3c(c2)COc2cc4c(ccc5nc([C@@H]6C[C@H](C)CN6C(=O)[C@@H](NC(=O)OC)C(C)C)[nH]c54)cc2-3)[nH]1)C(C)C"
  EC50: "1.32 nM"
- Compound: "COC[C@@H]1C[C@@H](c2nc3c([nH]2)-c2cc4c(cc2CC3)-c2ccc(-c3cnc([C@@H]5CCCN5C(=O)[C@@H](NC(=O)OC)C(C)C)[nH]3)cc2CO4)N(C(=O)[C@@H](NC(=O)OC)C(C)C)C1"
  EC50: "0.65 nM"
- Compound: "COC(=O)N[C@H](C(=O)N1[C@H](c2nc3ccc4cc5c(cc4c3[nH]2)OCc2cc(-c3cnc(C4CCCN4C(=O)[C@H](NC(=O)OC)c4ccccc4)[nH]3)ccc2-5)C[C@@H]2CCC[C@@H]21)C(C)C (stereo partly shown)"
  EC50: "0.035 nM"
